Reported SPOT intensity values are given for each entry in this list.
- System under test: GST
- Experimental protocol: SPOT array
- Assay setup: median of control spots 978

Binder	SPOT intensity
FFRRSELYLPNSSKA	0
RPPRPPPKPLHLRTE	0
ISNFVPPNLPMRRFK	1
KRRAPPPVPKKPSSR	3
QRIRKIPGIPLMSVG	0
GTIARPLFLVVLFFI	1
LKQRFFLMFPKSIIW	0
VRTRRRPPPPPIPST	2
SSAAPPPPPRRATPE	1
APERAVPILPPRNNV	0
VAPPPLPNRQLPNLD	0
QLMKNLPKIPLLNDI	1
GKLKHIPRRPYEIER	1
NLKKRPPTAPQRKIS	2
SKIRPTPRKPSRMAT	2
